B1: Osa-1-4 twister ribozyme (parent)
chain: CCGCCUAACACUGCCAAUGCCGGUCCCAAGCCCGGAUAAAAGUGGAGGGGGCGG

Variants of: B1
Assay: self-cleavage, relative activity (ratio to wild type); higher = more cleavage; co-transcriptional
PROPERTY: self-cleavage

[
  {
    "RESIDUE CODES": "CCGCCUAACACUGCCAAUGACGGUCCCAAGCCCGGAUAAAAGGGGAGGGGGCGG",
    "self-cleavage": 0.71
  },
  {
    "RESIDUE CODES": "CCGCCUAACACUGCCGAUGCCGGUCCCAAGCUCGGAUAAAAGUGGAGGGGGCGG",
    "self-cleavage": 0.09
  },
  {
    "RESIDUE CODES": "CCGCCUAACACUACCAAUGCCGGUCCCAAGCCCGGAUAAAAGUGGAGGGGCCGG",
    "self-cleavage": 0.02
  },
  {
    "RESIDUE CODES": "CCGCCUAACACUGCCCAUGCCGGUUCCAAGCCCGGAUAAAAGUGGAGGGGGCGG",
    "self-cleavage": 0.72
  },
  {
    "RESIDUE CODES": "CCGCCUAACACUGCCAAUGCCGGUCCCAAGCCCGUAUAAAAGCGGAGGGGGCGG",
    "self-cleavage": 0.21
  }
]

INPUT: Look at this variant and give its reported self-cleavage. CCGCCUCACACUGCCAAUGCCGGUCCCAAGCCCGGAUAAAAGUGGAGGGAGCGG
OUTPUT: 0.04

INPUT: Look at this variant and give its reported self-cleavage. CCGCCUAACACUGCCAAUGCCGGUCCCAAGCCCGGAUAAAAAUGGAGGGAGCGG
OUTPUT: 0.45

INPUT: Look at this variant and give its reported self-cleavage. CCGCCUAACACUGCCAGUGCCGGUCCCAAGCCCGGAUGAAAGUGGAGGGGGCGG
OUTPUT: 0.99
